- Tested on: P12-Ichikawa
- method-summary: cell viability relative to DMSO control; higher = less cytotoxic
- test-parameters: RPMI 5 mM glucose + 10% dialyzed FBS; 48 h; 46.1 µM
Each entry below lists one item and its recorded cell viability value.
Write the quantity with the unit trailing the number.

- c1ccc(-c2oc3ncnc(NC[C@@H]4CCCO4)c3c2-c2ccccc2)cc1: 49.8%

**Query** If you can, please state the reported cell viability value of N#C[C@H](O[C@@H]1O[C@H](CO[C@@H]2O[C@H](CO)[C@@H](O)[C@H](O)[C@H]2O)[C@@H](O)[C@H](O)[C@H]1O)c1ccccc1 .
**Result** 31.8%

**Query** If you can, please state the reported cell viability value of CCCC1OC2C[C@H]3[C@@H]4CCC5=CC(=O)C=C[C@]5(C)[C@H]4C(O)C[C@]3(C)[C@]2(C(=O)CO)O1 (some centres undefined) .
**Result** 28.4%

---

- System: P12-Ichikawa
- method-summary: cell viability relative to DMSO control; higher = less cytotoxic
- test-parameters: RPMI 5 mM glucose + 10% dialyzed FBS; 48 h; 0.0632 µM
Each entry below lists one item and its recorded cell viability value.
The reply should be a number in %, with the unit left off.

Check out these entries, answers already filled in.
• C[C@H]1O[C@H](C[C@H](O)[C@@H]1O)O[C@H]2[C@@H](O)C[C@@H](O[C@@H]2C)O[C@H]3[C@@H](O)C[C@@H](O[C@@H]3C)O[C@H]4CC[C@@]5(C)[C@H](CC[C@@H]6[C@@H]5C[C@@H](O)[C@]7(C)[C@H](CC[C@]67O)C/8=C/C(=O)OC8)C4 = 76.4
• OC[C@H]1O[C@@H]2[C@@H](OC\3=N\C(=N)\C=C/[N@@]23)[C@@H]1O = 92.4
• CCCC1OC2C[C@H]3[C@@H]4CCC5=CC(=O)C=C[C@]5(C)[C@H]4C(O)C[C@]3(C)[C@]2(C(=O)CO)O1 (stereo partly specified) = 60
• Cc1onc(-c2ccccc2)c1C(=O)N[C@@H]1C(=O)N2[C@@H]1SC(C)(C)[C@@H]2C(=O)[O-].[Na+] = 123
• COC1=CC=C(C=C1O)C/2=C/C(=O)C3=C(O2)C=C(O[C@@H]4O[C@H](CO[C@@H]5O[C@@H](C)[C@H](O)[C@@H](O)[C@H]5O)[C@@H](O)[C@H](O)[C@H]4O)C=C3O = 122

**Query** If you can, please state the reported cell viability value of CC(O)C1C2C(C)\C(=C(/N2C1=O)C(O)=O)SC3CNC(C3)C(=O)N(C)C (stereo unspecified) .
**Result** 88.8

---

- Test system: SEM cells
- method-summary: cell viability relative to DMSO control; higher = less cytotoxic
- test-parameters: HPLM + 10% dialyzed FBS; 48 h; 5.12 µM
reported-endpoint: cell viability (%)
The reply should be a number in %, with the unit left off.

• CC(O)C1C2C(C)\C(=C(/N2C1=O)C(O)=O)SC3CNC(C3)C(=O)N(C)C (configuration not stated) = 90.7
• C[C@@]1(C(=O)Nc2ccc(F)nc2)CCCN1c1nc(Nc2cc(C3CC3)[nH]n2)c2cccn2n1 = 30.6
• OC1=CC2=C(C(=C1)O)C(=O)\C(=C(/O2)C3=CC(=C(O)C=C3)O)O = 111
• COc1cc(/C=C/C(=O)O)ccc1O = 44.8
• NC(=O)OCC(COC(N)=O)c1ccccc1 = 92.8

**Query** If you can, please state the reported cell viability value of CC(NCCc1ccc(O)cc1)C(O)c1ccc(O)cc1 (configuration not stated) .
**Result** 90.7

**Query** If you can, please state the reported cell viability value of OC(CN1CCN(c2cccc(Cl)c2)CC1)C(c1ccccc1)c1ccccc1 (configuration not stated) .
**Result** 8.66

**Query** If you can, please state the reported cell viability value of C=CCc1ccc(O)c(-c2ccc(O)c(CC=C)c2)c1 .
**Result** 40.6

**Query** If you can, please state the reported cell viability value of Clc1ccc(COC(Cn2ccnc2)c2ccc(Cl)cc2Cl)c(Cl)c1 (configuration not stated) .
**Result** 99.3

**Query** If you can, please state the reported cell viability value of Cc1ncc([N+](=O)[O-])n1CC(C)O (configuration not stated) .
**Result** 81.6
